Origin of the recorded values: the supplement of paper PMC10567573

Entries and their measured protein stability index follow.
B1: SNURF (parent)
chain: QVPVVDFQAELRQAFLAETPRGG

variants of: B1; experiment: protein stability index of a GFP-peptide fusion (GPS, HEK-293T) (PSI 1-6); higher = more stable; conditions: c terminus: native;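 note: lentivirally expressed fusions sorted by FACS into six bins by GFP to DsRed ratio, PSI derived from sequencing read proportions per bin multiplied by bin number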

Variant Designation: E10Q
protein stability index: 2.59
--
Variant Designation: Q1S
protein stability index: 2.31
--
Variant Designation: P20A
protein stability index: 3
--
Variant Designation: R12Q
protein stability index: 3.27
--
Variant Designation: G23W
protein stability index: 1.5
--
Variant Designation: G23D
protein stability index: 3.97
--
Variant Designation: L16F
protein stability index: 2.03
--
Variant Designation: G23V
protein stability index: 2.52
--
Variant Designation: A14H
protein stability index: 2.3
--
Variant Designation: G22N
protein stability index: 2.5
--
Variant Designation: G22K
protein stability index: 2.04
--
Variant Designation: A17S
protein stability index: 2
--
Variant Designation: G22S
protein stability index: 1.94
--
Variant Designation: P20I
protein stability index: 3.38
--
Variant Designation: G23H
protein stability index: 1.77
--
Variant Designation: L11I
protein stability index: 2.03
--
Variant Designation: G22L
protein stability index: 2.66
--
Variant Designation: G22H
protein stability index: 2.79
--
Variant Designation: E10M
protein stability index: 3.19
--
Variant Designation: G23M
protein stability index: 1.71
--
Variant Designation: G23N
protein stability index: 1.92
--
Variant Designation: R12P
protein stability index: 2.89
--
Variant Designation: Q8K
protein stability index: 5.19
--
Variant Designation: D6R
protein stability index: 2.21
--
Variant Designation: G22V
protein stability index: 3.34
--
Variant Designation: E10A
protein stability index: 1.34
--
Variant Designation: L16W
protein stability index: 1.96
--
Variant Designation: F15K
protein stability index: 2.48
--
Variant Designation: D6C
protein stability index: 4.03
--
Variant Designation: A17K
protein stability index: 3.45
--
Variant Designation: L11A
protein stability index: 3.6
--
Variant Designation: E10F
protein stability index: 4
--
Variant Designation: E18S
protein stability index: 2.02
--
Variant Designation: G23A
protein stability index: 2.38
--
Variant Designation: R12Y
protein stability index: 3.86
--
Variant Designation: F15E
protein stability index: 2.82
